Origin of values: ChEMBL document CHEMBL3585252

- system_under_test: UniProtKB P18031
- assay_text: Mixed-competitive inhibition of human recombinant PTP1B using p-NPP as substrate preincubated for 10 mins followed by substrate addition measured after 20 mins by Lineweaver-Burk/Dixon plot analysis
pKi: −log10 of the molar value.
Everything with pKi lower than 5 is rule not met; everything else, including exactly 5, is rule met.

Reference set (3 entries):
# smiles_entry, answer_label
records = [
    ("O=c1cc(-c2ccc(O)c(-c3c(O)cc4oc(-c5ccc(O)cc5)cc(=O)c4c3O)c2)oc2cc(O)cc(O)c12", "rule met"),
    ("O=C(O)c1c(-c2ccc(O)cc2)ccc(CO)c1C#Cc1ccc(O)cc1", "rule not met"),
    ("O=c1cc(-c2ccc(O)c(-c3c(-c4ccc(O)cc4)oc4cc(O)cc(O)c4c3=O)c2)oc2cc(O)cc(O)c12", "rule met"),
]

--- query ---
Record O=c1c(-c2c(O)cc(O)c3c(=O)cc(-c4ccc(O)cc4)oc23)c(-c2ccc(O)cc2)oc2cc(O)cc(O)c12 ; criterion: pKi no lower than 5. Met?
rule met

* * *

- system_under_test: Tyrosine-protein phosphatase non-receptor type 1 (Mus musculus) (UniProt P35821)
- Sequence (whole entry): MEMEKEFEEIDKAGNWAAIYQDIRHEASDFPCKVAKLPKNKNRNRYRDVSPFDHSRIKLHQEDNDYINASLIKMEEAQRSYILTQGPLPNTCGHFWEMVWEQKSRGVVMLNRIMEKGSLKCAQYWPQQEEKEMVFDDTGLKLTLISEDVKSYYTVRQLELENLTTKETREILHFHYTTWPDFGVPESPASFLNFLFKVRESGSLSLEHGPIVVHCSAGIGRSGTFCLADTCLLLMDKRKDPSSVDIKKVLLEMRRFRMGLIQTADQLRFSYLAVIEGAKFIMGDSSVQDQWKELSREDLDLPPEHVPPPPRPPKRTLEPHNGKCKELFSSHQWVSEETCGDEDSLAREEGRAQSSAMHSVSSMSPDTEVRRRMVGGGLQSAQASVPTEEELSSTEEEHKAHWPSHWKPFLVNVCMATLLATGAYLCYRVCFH
- assay_text: Inhibition of PTP1B in mouse 3T3L1 cells assessed as stimulation of 2-NBDG uptake preincubated for 24 hrs followed by 2-NBDG addition measured after 30 mins by fluorescence reader analysis
- Format: cell-based
- experimental_setup: 3T3-L1

# smiles_entry, inhibition
records = [
    ("O=c1cc(-c2ccc(O)c(-c3c(O)cc(O)c4c(=O)cc(-c5ccc(O)cc5)oc34)c2)oc2cc(O)cc(O)c12", "Dose-dependent effect"),
    ("O=c1cc(-c2ccc(O)c(-c3c(-c4ccc(O)cc4)oc4cc(O)cc(O)c4c3=O)c2)oc2cc(O)cc(O)c12", "Dose-dependent effect"),
    ("O=C(O)c1c(-c2ccc(O)cc2)ccc(CO)c1C#Cc1ccc(O)cc1", "Dose-dependent effect"),
]

* * *

- system_under_test: Tyrosine-protein phosphatase non-receptor type 1 (Homo sapiens, UniProt P18031)
- Sequence (P18031 whole entry): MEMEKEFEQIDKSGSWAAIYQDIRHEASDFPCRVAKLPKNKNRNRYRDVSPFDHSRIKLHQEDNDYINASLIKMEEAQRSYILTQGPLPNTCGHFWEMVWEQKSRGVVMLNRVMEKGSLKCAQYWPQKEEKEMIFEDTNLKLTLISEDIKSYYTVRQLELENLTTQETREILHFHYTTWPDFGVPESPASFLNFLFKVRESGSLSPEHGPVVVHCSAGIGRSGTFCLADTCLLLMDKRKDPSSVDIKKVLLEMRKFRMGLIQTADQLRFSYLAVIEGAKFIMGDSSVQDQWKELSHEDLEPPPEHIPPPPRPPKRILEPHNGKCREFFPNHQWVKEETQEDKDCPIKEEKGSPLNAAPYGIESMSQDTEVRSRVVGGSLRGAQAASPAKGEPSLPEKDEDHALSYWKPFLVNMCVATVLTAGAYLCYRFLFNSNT
- assay_text: Competitive inhibition of human recombinant PTP1B using p-NPP as substrate preincubated for 10 mins followed by substrate addition measured after 20 mins by Lineweaver-Burk/Dixon plot analysis
measurement_label: pKi
Keep it numeric: pKi is minus log10 of the concentration in mol/L.

// query pKi value for entry O=c1cc(-c2ccc(O)cc2)oc2c(-c3c(O)cc(O)c4c(=O)cc(-c5ccc(O)cc5)oc34)c(O)cc(O)c12
4.97
